# targetOrSystem: VIM-1 (Pseudomonas aeruginosa)
# assayMethodText: Inhibitory activity on MBL, fluorescent substrate FC-5
# Type: biochemical
# statedConditions: read-out: Inhibitory activity on MBL VIM-1 (IC50 class)
pIC50: −log10 of the molar value.
Some molecules, each annotated with its measured pIC50.

CO[C@H]1Cc2ccc(Cn3ccnn3)c(C(=O)O)c2OB1O [Compound 30] :: 6.00 to 8.00

// field: pIC50; key: NC1CCC(c2cn(Cc3ccc4c(c3C(=O)O)OB(O)CC4)nn2)CC1 (stereo not drawn) [Compound 11] ; value = 4.00 to 6.00

// field: pIC50; key: O=C(O)c1c(Cn2ccnn2)ccc2c1OB(O)C1CC21 (stereo not drawn) [Compound 28] ; value = 6.00 to 8.00

// field: pIC50; key: O=C(O)c1c(Cn2cc([N+](=O)[O-])cn2)ccc2c1OB(O)CC2 [Compound 31] ; value = 4.00 to 6.00

---

# targetOrSystem: UniProt Q9F663
# Sequence (Q9F663 25-293 limits assumed): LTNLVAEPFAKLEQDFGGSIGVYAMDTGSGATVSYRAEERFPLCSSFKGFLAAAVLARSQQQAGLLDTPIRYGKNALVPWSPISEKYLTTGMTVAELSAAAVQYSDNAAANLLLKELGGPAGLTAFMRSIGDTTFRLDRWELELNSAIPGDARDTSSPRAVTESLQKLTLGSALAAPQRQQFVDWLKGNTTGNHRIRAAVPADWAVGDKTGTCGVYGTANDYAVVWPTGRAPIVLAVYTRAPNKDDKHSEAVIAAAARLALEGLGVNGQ
# assayMethodText: Inhibitory activity on SBL, fluorescent substrate FC-5
# Assay type: biochemical
# statedConditions: read-out: Inhibitory activity on SBL KPC-2 (IC50 class)
measuredEndpoint: IC50

N=C(N)NCc1cnn(Cc2ccc3c(c2C(=O)O)OB(O)CC3)c1 [Compound 37] :: < 10 nM
NC1CN(C(=O)c2cnn(Cc3ccc4c(c3C(=O)O)OB(O)CC4)c2)C1 [Compound 72] :: < 10 nM
NC(=O)N1Cc2cn(Cc3ccc4c(c3C(=O)O)OB(O)CC4)nc2C1 [Compound 73] :: < 10 nM

// field: IC50; key: N=C(N)NCc1ccc(-c2cn(Cc3ccc4c(c3C(=O)O)OB(O)CC4)nn2)cc1 [Compound 64] ; value = < 10 nM

// field: IC50; key: NCCc1cn(Cc2ccc3c(c2C(=O)O)OB(O)CC3)nn1 [Compound 8] ; value = 10 to 1000 nM

---

# targetOrSystem: IMP-1 (Serratia marcescens, UniProt P52699)
# Sequence (P52699 19-246 limits assumed): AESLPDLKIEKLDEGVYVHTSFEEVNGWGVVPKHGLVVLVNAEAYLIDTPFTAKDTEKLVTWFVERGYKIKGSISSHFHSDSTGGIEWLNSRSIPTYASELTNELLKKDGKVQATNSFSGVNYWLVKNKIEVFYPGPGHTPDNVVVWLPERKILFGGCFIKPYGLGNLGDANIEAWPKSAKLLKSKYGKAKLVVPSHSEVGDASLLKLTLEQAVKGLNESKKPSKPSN
# assayMethodText: Inhibitory activity on MBL, fluorescent substrate FC-5
# Format: biochemical
# statedConditions: read-out: Inhibitory activity on MBL IMP-1 (IC50 class)
pIC50: −log10 of the molar value.
measuredEndpoint: pIC50

Recorded results for 5 compounds are shown here.
O=C(O)c1c(Cn2ccnn2)ccc2c1OB(O)C1CC21 (stereo not drawn) :: 6.00 to 8.00
O=C(O)c1c(Cn2cc3c(n2)CNC3)ccc2c1OB(O)CC2 [Compound 56-Na] :: 4.00 to 6.00
NCc1ccc(-c2cn(Cc3ccc4c(c3C(=O)O)OB(O)CC4)nn2)cc1 :: 6.00 to 8.00
NCCN1Cc2cn(Cc3ccc4c(c3C(=O)O)OB(O)CC4)nc2C1 :: 6.00 to 8.00
Nc1cnn(Cc2ccc3c(c2C(=O)O)OB(O)CC3)c1 :: 4.00 to 6.00

Measured pIC50 (IMP-1 (Serratia marcescens, UniProt P52699)), entry "N#CCCCc1cn(Cc2ccc3c(c2C(=O)O)OB(O)CC3)nn1" : 4.00 to 6.00

Measured pIC50 (IMP-1 (Serratia marcescens, UniProt P52699)), entry "N=C(N)NCCc1cnn(Cc2ccc3c(c2C(=O)O)OB(O)CC3)c1" : 4.00 to 6.00

---

# targetOrSystem: VIM-1 (Pseudomonas aeruginosa)
# assayMethodText: Inhibitory activity on MBL, fluorescent substrate FC-5
# Type: biochemical
# statedConditions: Inhibitory activity on MBL VIM-1 (IC50 class)
pIC50: −log10 of the molar value.
Some molecules, each annotated with its measured pIC50.

C[C@]1(Cn2ccnn2)[C@H](C(=O)O)N2C(=O)C[C@H]2S1(=O)=O [Tazobactam, reference compound] :: < 4.00

// field: pIC50; key: O=C(O)c1c(Cn2nccn2)ccc2c1OB(O)C1CC21 (centres unmarked) ; value = 4.00 to 6.00
